# System: 494315-158-R-J1-PDC complex spheroid growth, percent test/control
# method summary: Anticancer human tumor 494315-158-R-J1-PDC patient-derived soft tissue sarcoma cell line growth inhibition [Asc]; active = viability on the fitted dose curve at most 10% of control; inactive = the rest
# applied conditions: second compound 1 µM; first compound 10 µM
Outcomes: active, inactive

| molecule | study system | cat |
| --- | --- | --- |
| C=C(F)C(=O)N1CCN(c2nc(OCC3CCCN3C)nc3c2CCN(c2cccc4cccc(Cl)c24)C3)CC1CC#N (stereo not given) + CNC(C)C(=O)NC1CN(S(=O)(=O)c2cccc(S(=O)(=O)N3CCC4CCC(C(=O)NC(c5ccccc5)c5ccccc5)N4C(=O)C(NC(=O)C(C)NC)C3)c2)CCC2CCC(C(=O)NC(c3ccccc3)c3ccccc3)N2C1=O | 494315-158-R-J1-PDC complex spheroid growth, percent test/control | active |
| O=C(c1cc(Cc2n[nH]c(=O)c3ccccc23)ccc1F)N1CCN(C(=O)C2CC2)CC1 + Cc1c(S(C)(=O)=O)c(-c2cc(F)cc(N3CCN(c4ccc(NS(=O)(=O)c5ccc(NC(CCN6CCC(C(=O)OCCCP(=O)(O)O)CC6)CSc6ccccc6)c(S(=O)(=O)C(F)(F)F)c5)cc4)CC3)c2)c(-c2ccc(Cl)cc2)n1C(C)C | 494315-158-R-J1-PDC complex spheroid growth, percent test/control | inactive |
| C=CC(=O)N1CCN(c2nc(=O)n(-c3c(C)ccnc3C(C)C)c3nc(-c4c(O)cccc4F)c(F)cc23)C(C)C1 (stereo not given) + Cc1c(S(C)(=O)=O)c(-c2cc(F)cc(N3CCN(c4ccc(NS(=O)(=O)c5ccc(NC(CCN6CCC(C(=O)OCCCP(=O)(O)O)CC6)CSc6ccccc6)c(S(=O)(=O)C(F)(F)F)c5)cc4)CC3)c2)c(-c2ccc(Cl)cc2)n1C(C)C | 494315-158-R-J1-PDC complex spheroid growth, percent test/control | inactive |
| C#Cc1c(F)ccc2cc(O)cc(-c3ncc4c(N5CC6CCC(C5)N6)nc(OCC56CCCN5CC(F)C6)nc4c3F)c12 (stereo not given) + CNC(C)C(=O)NC1CN(S(=O)(=O)c2cccc(S(=O)(=O)N3CCC4CCC(C(=O)NC(c5ccccc5)c5ccccc5)N4C(=O)C(NC(=O)C(C)NC)C3)c2)CCC2CCC(C(=O)NC(c3ccccc3)c3ccccc3)N2C1=O | 494315-158-R-J1-PDC complex spheroid growth, percent test/control | inactive |
| O=C(c1cc(Cc2n[nH]c(=O)c3ccccc23)ccc1F)N1CCN(C(=O)C2CC2)CC1 + CNC(C)C(=O)NC1CN(S(=O)(=O)c2cccc(S(=O)(=O)N3CCC4CCC(C(=O)NC(c5ccccc5)c5ccccc5)N4C(=O)C(NC(=O)C(C)NC)C3)c2)CCC2CCC(C(=O)NC(c3ccccc3)c3ccccc3)N2C1=O | 494315-158-R-J1-PDC complex spheroid growth, percent test/control | inactive |

----------
# Test system: 494315-158-R-J1-PDC complex spheroid growth, percent test/control
# method summary: Anticancer human tumor 494315-158-R-J1-PDC cell line growth inhibition [Asc];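 note: compound exposure lasted seven days after spheroids formed for three days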
# applied conditions: second compound 0.01 µM; first compound 0.316 µM; stronger effect = lower value
# Excerpt: Multicellular complex tumor spheroid response to apoptosis pathway targeting inhibitors Alrizomadlin, Pelcitoclax, and Dasminapant in combination with a variety of drugs and investigational agents in selected tumor cell lines […] Compounds. […] If the clinical Cmax for an agent had not been determined, the highest concentration tested was 10 microM. […]
# key: entry, value: viability, T/C
endpoint label: viability, T/C (%)

| molecule | study system | endpoint label | recorded value |
| --- | --- | --- | --- |
| O=C(c1ccc(F)c(F)c1Nc1ccc(I)cc1F)N1CC(O)([C@@H]2CCCCN2)C1 + CNC(C)C(=O)NC1CN(S(=O)(=O)c2cccc(S(=O)(=O)N3CCC4CCC(C(=O)NC(c5ccccc5)c5ccccc5)N4C(=O)C(NC(=O)C(C)NC)C3)c2)CCC2CCC(C(=O)NC(c3ccccc3)c3ccccc3)N2C1=O | 494315-158-R-J1-PDC complex spheroid growth, percent test/control | viability, T/C | 97.3 |
| C=CC(=O)N1CCN(c2nc(=O)n(-c3c(C)ccnc3C(C)C)c3nc(-c4c(O)cccc4F)c(F)cc23)C(C)C1 (configuration not stated) + CNC(C)C(=O)NC1CN(S(=O)(=O)c2cccc(S(=O)(=O)N3CCC4CCC(C(=O)NC(c5ccccc5)c5ccccc5)N4C(=O)C(NC(=O)C(C)NC)C3)c2)CCC2CCC(C(=O)NC(c3ccccc3)c3ccccc3)N2C1=O | 494315-158-R-J1-PDC complex spheroid growth, percent test/control | viability, T/C | 74.1 |
| CCN1CCN(Cc2ccc(Nc3ncc(F)c(-c4cc(F)c5nc(C)n(C(C)C)c5c4)n3)nc2)CC1 + CNC(C)C(=O)NC1CN(S(=O)(=O)c2cccc(S(=O)(=O)N3CCC4CCC(C(=O)NC(c5ccccc5)c5ccccc5)N4C(=O)C(NC(=O)C(C)NC)C3)c2)CCC2CCC(C(=O)NC(c3ccccc3)c3ccccc3)N2C1=O | 494315-158-R-J1-PDC complex spheroid growth, percent test/control | viability, T/C | 67.5 |
| C#Cc1c(F)ccc2cc(O)cc(-c3ncc4c(N5CC6CCC(C5)N6)nc(OCC56CCCN5CC(F)C6)nc4c3F)c12 (configuration not stated) + CNC(C)C(=O)NC1CN(S(=O)(=O)c2cccc(S(=O)(=O)N3CCC4CCC(C(=O)NC(c5ccccc5)c5ccccc5)N4C(=O)C(NC(=O)C(C)NC)C3)c2)CCC2CCC(C(=O)NC(c3ccccc3)c3ccccc3)N2C1=O | 494315-158-R-J1-PDC complex spheroid growth, percent test/control | viability, T/C | 78.4 |
| O=C(c1cc(Cc2n[nH]c(=O)c3ccccc23)ccc1F)N1CCN(C(=O)C2CC2)CC1 + CNC(C)C(=O)NC1CN(S(=O)(=O)c2cccc(S(=O)(=O)N3CCC4CCC(C(=O)NC(c5ccccc5)c5ccccc5)N4C(=O)C(NC(=O)C(C)NC)C3)c2)CCC2CCC(C(=O)NC(c3ccccc3)c3ccccc3)N2C1=O | 494315-158-R-J1-PDC complex spheroid growth, percent test/control | viability, T/C | 60.3 |
| COc1c(OCCCN2CCOCC2)ccc2c3n(c(=NC(=O)c4cnc(N)nc4)nc12)CCN3 + CNC(C)C(=O)NC1CN(S(=O)(=O)c2cccc(S(=O)(=O)N3CCC4CCC(C(=O)NC(c5ccccc5)c5ccccc5)N4C(=O)C(NC(=O)C(C)NC)C3)c2)CCC2CCC(C(=O)NC(c3ccccc3)c3ccccc3)N2C1=O | 494315-158-R-J1-PDC complex spheroid growth, percent test/control | viability, T/C | 16.8 |
| C=C(F)C(=O)N1CCN(c2nc(OCC3CCCN3C)nc3c2CCN(c2cccc4cccc(Cl)c24)C3)CC1CC#N (configuration not stated) + CNC(C)C(=O)NC1CN(S(=O)(=O)c2cccc(S(=O)(=O)N3CCC4CCC(C(=O)NC(c5ccccc5)c5ccccc5)N4C(=O)C(NC(=O)C(C)NC)C3)c2)CCC2CCC(C(=O)NC(c3ccccc3)c3ccccc3)N2C1=O | 494315-158-R-J1-PDC complex spheroid growth, percent test/control | viability, T/C | 61.5 |

----------
# Test system: 494315-158-R-J1-PDC complex spheroid growth, percent test/control
# method summary: Anticancer human tumor 494315-158-R-J1-PDC cell line growth inhibition [Asc];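 note: compound exposure lasted seven days after spheroids formed for three days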
# applied conditions: second compound 0.0316 µM; first compound 0.1 µM; stronger effect = lower value

| molecule | study system | output unit | viability, T/C |
| --- | --- | --- | --- |
| NC1CCC(NC2CC2c2ccccc2)CC1 (stereo unspecified) + CNC(C)C(=O)NC1CN(S(=O)(=O)c2cccc(S(=O)(=O)N3CCC4CCC(C(=O)NC(c5ccccc5)c5ccccc5)N4C(=O)C(NC(=O)C(C)NC)C3)c2)CCC2CCC(C(=O)NC(c3ccccc3)c3ccccc3)N2C1=O | 494315-158-R-J1-PDC complex spheroid growth, percent test/control | % | 57.3 |

----------
# System: 494315-158-R-J1-PDC complex spheroid growth, percent test/control
# method summary: Anticancer human tumor 494315-158-R-J1-PDC cell line growth inhibition [Asc];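 note: compound exposure lasted seven days after spheroids formed for three days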
# applied conditions: curve of first compound; second compound 0.949 µM
pIC50: −log10 of the molar value.

| compound | pIC50 |
| --- | --- |
| CCN1CCN(Cc2ccc(Nc3ncc(F)c(-c4cc(F)c5nc(C)n(C(C)C)c5c4)n3)nc2)CC1 + CCN1C(C(=O)NC23CCC(C(=O)O)(CC2)CC3)C(c2cccc(Cl)c2F)C2(C(=O)Nc3cc(Cl)ccc32)C12CCCCC2 | < 6.00 |
| O=C(c1ccc(F)c(F)c1Nc1ccc(I)cc1F)N1CC(O)([C@@H]2CCCCN2)C1 + CCN1C(C(=O)NC23CCC(C(=O)O)(CC2)CC3)C(c2cccc(Cl)c2F)C2(C(=O)Nc3cc(Cl)ccc32)C12CCCCC2 | < 6.00 |
| C#Cc1c(F)ccc2cc(O)cc(-c3ncc4c(N5CC6CCC(C5)N6)nc(OCC56CCCN5CC(F)C6)nc4c3F)c12 (centres undefined) + CCN1C(C(=O)NC23CCC(C(=O)O)(CC2)CC3)C(c2cccc(Cl)c2F)C2(C(=O)Nc3cc(Cl)ccc32)C12CCCCC2 | < 5.00 |
| CNC(C)C(=O)NC1CN(S(=O)(=O)c2cccc(S(=O)(=O)N3CCC4CCC(C(=O)NC(c5ccccc5)c5ccccc5)N4C(=O)C(NC(=O)C(C)NC)C3)c2)CCC2CCC(C(=O)NC(c3ccccc3)c3ccccc3)N2C1=O (centres undefined) + CCN1C(C(=O)NC23CCC(C(=O)O)(CC2)CC3)C(c2cccc(Cl)c2F)C2(C(=O)Nc3cc(Cl)ccc32)C12CCCCC2 | 7.08 |
